Below, each entry is listed with its recorded cell viability.
# Test system: SEM cells
# EXPERIMENT: cell viability relative to DMSO control; higher = less cytotoxic
# STUDY CONDITIONS: RPMI 5 mM glucose + 10% dialyzed FBS; 48 h; 0.000781 µM
TEST READOUT: cell viability (%)

>  <ENTRY SMILES>
NC(CO)(CO)CCc1ccc(Sc2cccc(OCc3ccccc3)c2)cc1Cl

>  <TEST READOUT>
cell viability

>  <VALUE UNITS>
%

>  <MEASURED>
80.3

$$$$
>  <ENTRY SMILES>
CC(C)(C)c1cc(C=C(C#N)C#N)cc(Br)c1O

>  <TEST READOUT>
cell viability

>  <VALUE UNITS>
%

>  <MEASURED>
87.3

$$$$
>  <ENTRY SMILES>
CC(C)[C@@H](C[S+](=O)([O-])C(C)C)N1C(=O)[C@@](C)(CC(=O)O)C[C@H](c2cccc(Cl)c2)[C@H]1c1ccc(Cl)cc1

>  <TEST READOUT>
cell viability

>  <VALUE UNITS>
%

>  <MEASURED>
127

$$$$
>  <ENTRY SMILES>
Cn1c(Nc2ccc(C(F)(F)F)cc2)nc2cc(Oc3ccnc(-c4nc(C(F)(F)F)c[nH]4)c3)ccc21

>  <TEST READOUT>
cell viability

>  <VALUE UNITS>
%

>  <MEASURED>
108

$$$$
>  <ENTRY SMILES>
CCC[C@H](N[C@@H](C)C(=O)N1[C@H](C(=O)O)C[C@@H]2CCCC[C@@H]21)C(=O)OCC

>  <TEST READOUT>
cell viability

>  <VALUE UNITS>
%

>  <MEASURED>
110

$$$$
>  <ENTRY SMILES>
CC(C)(C)C(=O)Oc1ccc([S+](=O)([O-])Nc2ccccc2C(=O)NCC(=O)O)cc1

>  <TEST READOUT>
cell viability

>  <VALUE UNITS>
%

>  <MEASURED>
106

$$$$
>  <ENTRY SMILES>
CCNC(=O)c1cc2c(-c3cc(OCCN4CCCC4)c(Cl)cc3Cl)nc(N)nc2s1

>  <TEST READOUT>
cell viability

>  <VALUE UNITS>
%

>  <MEASURED>
96.2

$$$$
>  <ENTRY SMILES>
CO[C@H]1C[C@@H]2CC[C@@H](C)[C@@](O)(O2)C(=O)C(=O)N2CCCC[C@H]2C(=O)O[C@H]([C@H](C)C[C@@H]2CC[C@@H](OC(=O)C(C)(CO)CO)[C@H](OC)C2)CC(=O)[C@H](C)/C=C(\C)[C@@H](O)[C@@H](OC)C(=O)[C@H](C)C[C@H](C)/C=C/C=C/C=C/1C

>  <TEST READOUT>
cell viability

>  <VALUE UNITS>
%

>  <MEASURED>
87.4

$$$$
